RESULT_TYPE: melting point

Known melting point results, listed for orientation:
INSERT INTO results (compound, result) VALUES
  ('CCc1ccccc1NC(=O)CCSc1nnc(Cc2csc(N)n2)o1 [Compound 7j]', '198 to 199 °C'),
  ('Cc1cccc(C)c1NC(=O)CCSc1nnc(Cc2csc(N)n2)o1 [Compound 7g]', '149 to 150 °C'),
  ('Nc1nc(Cc2nnc(SCCC(=O)Nc3ccccc3)o2)cs1 [Compound 7a]', '190 to 191 °C');

Would you kindly look at the next entry?
In plain terms, Cc1ccc(NC(=O)CCSc2nnc(Cc3csc(N)n3)o2)cc1C [Compound 7h] has a documented melting point of 177 to 178 °C

====

TEST_TARGET: urease (Canavalia ensiformis)
PROTOCOL_NOTES: Urease inhibition assay (customized Berthelot assay)
Assay type: biochemical
CONDITION_DESCRIPTION: mean ± SEM, n = 3; EZ-Fit Enzyme kinetics software; read-out: Urease Inhibition, IC50
RESULT_TYPE: pIC50
Interpret pIC50 as the negative base-10 log of the concentration measured in mol/L.

# compound NC(N)=S [Thiourea, reference compound] ; its pIC50 = 4.68

====

TEST_TARGET: urease (Canavalia ensiformis, UniProt P07374)
Sequence (P07374 whole entry, looked up): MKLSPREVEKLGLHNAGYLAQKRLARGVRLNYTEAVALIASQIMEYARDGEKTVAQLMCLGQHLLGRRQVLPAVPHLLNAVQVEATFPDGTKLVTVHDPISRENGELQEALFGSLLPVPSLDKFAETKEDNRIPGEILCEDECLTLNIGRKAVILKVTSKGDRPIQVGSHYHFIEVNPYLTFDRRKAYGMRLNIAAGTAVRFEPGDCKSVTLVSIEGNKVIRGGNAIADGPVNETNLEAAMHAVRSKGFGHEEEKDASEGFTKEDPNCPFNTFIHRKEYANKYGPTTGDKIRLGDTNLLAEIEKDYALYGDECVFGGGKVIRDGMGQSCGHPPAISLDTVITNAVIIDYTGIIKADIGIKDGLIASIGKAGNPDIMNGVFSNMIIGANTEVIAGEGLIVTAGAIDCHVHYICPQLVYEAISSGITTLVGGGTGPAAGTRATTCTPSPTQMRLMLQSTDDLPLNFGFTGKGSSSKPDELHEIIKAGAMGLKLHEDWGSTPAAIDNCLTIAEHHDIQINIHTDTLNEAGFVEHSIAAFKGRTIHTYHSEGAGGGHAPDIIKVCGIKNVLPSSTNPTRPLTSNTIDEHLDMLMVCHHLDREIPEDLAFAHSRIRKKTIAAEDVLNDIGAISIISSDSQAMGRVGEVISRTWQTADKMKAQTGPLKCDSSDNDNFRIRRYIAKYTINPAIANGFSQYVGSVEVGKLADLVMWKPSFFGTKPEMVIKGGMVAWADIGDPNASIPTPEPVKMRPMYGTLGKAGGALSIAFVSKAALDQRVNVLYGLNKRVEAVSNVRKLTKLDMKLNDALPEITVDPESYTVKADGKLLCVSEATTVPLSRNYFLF
PROTOCOL_NOTES: Urease inhibition assay (customized Berthelot assay)
Assay type: biochemical
CONDITION_DESCRIPTION: read-out: Urease Inhibition, Inhibition (%)
RESULT_TYPE: inhibition at 500 µM (%)
Write it as a number; the unit % goes unstated.

Reference set, count: 5
INSERT INTO measurements (structure_string, result_units, quantitative_readout) VALUES
  ('Cc1ccc(NC(=O)CCSc2nnc(Cc3csc(N)n3)o2)cc1C', '%', 97.3),
  ('Cc1ccccc1NC(=O)CCSc1nnc(Cc2csc(N)n2)o1', '%', 96.4),
  ('Cc1ccc(NC(=O)CCSc2nnc(Cc3csc(N)n3)o2)cc1', '%', 98.1),
  ('CCc1ccccc1NC(=O)CCSc1nnc(Cc2csc(N)n2)o1', '%', 98.1),
  ('CCOc1ccc(NC(=O)CCSc2nnc(Cc3csc(N)n3)o2)cc1', '%', 97.2);

Summary: `Nc1nc(Cc2nnc(SCCC(=O)Nc3ccccc3)o2)cs1` , urease (Canavalia ensiformis, UniProt P07374), inhibition at 500 µM = 98.2

Entry `Cc1cc(C)cc(NC(=O)CCSc2nnc(Cc3csc(N)n3)o2)c1` , urease (Canavalia ensiformis, UniProt P07374) data, inhibition at 500 µM value: 97.3

urease (Canavalia ensiformis, UniProt P07374) assay, compound `CCc1ccc(NC(=O)CCSc2nnc(Cc3csc(N)n3)o2)cc1` , recorded inhibition at 500 µM = 97.4

Tested on urease (Canavalia ensiformis, UniProt P07374): `Cc1cccc(NC(=O)CCSc2nnc(Cc3csc(N)n3)o2)c1` . Observed inhibition at 500 µM: 98.5

====

Examples of compounds with documented inhibition at 500 µM follow.
TEST_TARGET: urease (Canavalia ensiformis)
PROTOCOL_NOTES: Urease inhibition assay (customized Berthelot assay)
Assay type: biochemical
CONDITION_DESCRIPTION: read-out: Urease Inhibition, Inhibition (%)
Give the number; % is assumed, so skip it.

Below: 2 compounds and their reported inhibition at 500 µM.
INSERT INTO measurements (structure_string, test_target, result_type, result_units, quantitative_readout) VALUES
  ('Cc1cccc(C)c1NC(=O)CCSc1nnc(Cc2csc(N)n2)o1', 'urease (Canavalia ensiformis)', 'inhibition at 500 µM', '%', 98.5),
  ('Cc1ccc(C)c(NC(=O)CCSc2nnc(Cc3csc(N)n3)o2)c1', 'urease (Canavalia ensiformis)', 'inhibition at 500 µM', '%', 96.3);

Now for another entry.
Lab note: `Cc1ccc(NC(=O)CCSc2nnc(Cc3csc(N)n3)o2)c(C)c1` gave inhibition at 500 µM of 98.2
